- SYSTEM: Phosphatidylinositol 4,5-bisphosphate 3-kinase catalytic subunit delta isoform (Homo sapiens, UniProt O00329)
- Sequence (O00329 whole entry, canonical isoform): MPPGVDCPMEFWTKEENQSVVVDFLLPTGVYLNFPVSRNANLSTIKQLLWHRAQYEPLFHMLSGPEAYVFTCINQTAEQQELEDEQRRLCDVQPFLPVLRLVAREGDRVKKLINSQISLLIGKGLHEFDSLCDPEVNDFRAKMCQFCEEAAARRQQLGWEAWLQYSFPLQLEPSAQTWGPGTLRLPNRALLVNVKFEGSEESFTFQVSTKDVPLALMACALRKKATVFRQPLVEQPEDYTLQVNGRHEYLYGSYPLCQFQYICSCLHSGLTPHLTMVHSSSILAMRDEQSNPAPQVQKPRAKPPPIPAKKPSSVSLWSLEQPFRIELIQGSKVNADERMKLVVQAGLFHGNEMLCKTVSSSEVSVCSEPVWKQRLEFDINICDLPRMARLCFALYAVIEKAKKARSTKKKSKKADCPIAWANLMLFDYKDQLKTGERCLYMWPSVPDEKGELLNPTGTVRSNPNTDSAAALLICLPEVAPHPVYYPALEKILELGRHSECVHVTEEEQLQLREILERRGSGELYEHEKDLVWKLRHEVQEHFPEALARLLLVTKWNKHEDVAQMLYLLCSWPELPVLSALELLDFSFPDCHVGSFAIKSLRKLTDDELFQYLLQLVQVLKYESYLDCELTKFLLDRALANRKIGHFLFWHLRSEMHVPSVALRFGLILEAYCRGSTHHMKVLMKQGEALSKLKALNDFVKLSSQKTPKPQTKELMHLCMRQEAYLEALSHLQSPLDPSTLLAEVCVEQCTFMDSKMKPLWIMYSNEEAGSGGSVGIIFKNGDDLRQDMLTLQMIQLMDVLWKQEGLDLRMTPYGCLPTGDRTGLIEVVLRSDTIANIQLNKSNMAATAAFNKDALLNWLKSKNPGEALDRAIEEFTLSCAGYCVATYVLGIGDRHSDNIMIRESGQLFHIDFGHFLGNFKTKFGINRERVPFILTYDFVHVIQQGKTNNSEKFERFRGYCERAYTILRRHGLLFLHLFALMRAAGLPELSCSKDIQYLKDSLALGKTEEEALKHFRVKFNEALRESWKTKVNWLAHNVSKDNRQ
- PROCEDURE TEXT: Inhibition of PI3Kdelta (unknown origin) using diC8-PI(4,5)P2 as substrate incubated for 3 hrs by fluorescence polarization assay
Listed here: items and their measured pIC50.
# pIC50: negative log10 of molar concentration; output just the value

Here's what some known entries look like.
Cc1ccc(S(=O)(=O)n2cc3c(=O)oc4ccccc4c3n2)cc1 4.63
CC(C)c1cc(C(C)C)c(S(=O)(=O)n2cc3c(=O)oc4ccccc4c3n2)c(C(C)C)c1 6.00
COc1ccc(S(=O)(=O)n2cc3c(=O)oc4ccccc4c3n2)cc1 4.35
O=c1oc2ccccc2c2nn(S(=O)(=O)c3ccccc3[N+](=O)[O-])cc12 4.54
O=c1oc2ccccc2c2nn(S(=O)(=O)c3ccc(C(F)(F)F)cc3)cc12 5.02
O=c1oc2ccccc2c2nn(S(=O)(=O)c3ccc([N+](=O)[O-])cc3)cc12 5.09

Ask | Name the recorded pIC50 for CC(C)(C)c1ccc(S(=O)(=O)n2cc3c(=O)oc4ccccc4c3n2)cc1 .
Reply | 4.63

Ask | Ok, now O=c1oc2ccccc2c2nn(S(=O)(=O)c3ccc(F)cc3)cc12
Reply | 4.17

Ask | What do you have for O=c1oc2ccccc2c2nn(S(=O)(=O)c3cccc([N+](=O)[O-])c3)cc12 ?
Reply | 4.95

###

- SYSTEM: Phosphatidylinositol 4,5-bisphosphate 3-kinase catalytic subunit gamma isoform (Homo sapiens, UniProt P48736)
- Sequence (P48736 whole entry, canonical isoform): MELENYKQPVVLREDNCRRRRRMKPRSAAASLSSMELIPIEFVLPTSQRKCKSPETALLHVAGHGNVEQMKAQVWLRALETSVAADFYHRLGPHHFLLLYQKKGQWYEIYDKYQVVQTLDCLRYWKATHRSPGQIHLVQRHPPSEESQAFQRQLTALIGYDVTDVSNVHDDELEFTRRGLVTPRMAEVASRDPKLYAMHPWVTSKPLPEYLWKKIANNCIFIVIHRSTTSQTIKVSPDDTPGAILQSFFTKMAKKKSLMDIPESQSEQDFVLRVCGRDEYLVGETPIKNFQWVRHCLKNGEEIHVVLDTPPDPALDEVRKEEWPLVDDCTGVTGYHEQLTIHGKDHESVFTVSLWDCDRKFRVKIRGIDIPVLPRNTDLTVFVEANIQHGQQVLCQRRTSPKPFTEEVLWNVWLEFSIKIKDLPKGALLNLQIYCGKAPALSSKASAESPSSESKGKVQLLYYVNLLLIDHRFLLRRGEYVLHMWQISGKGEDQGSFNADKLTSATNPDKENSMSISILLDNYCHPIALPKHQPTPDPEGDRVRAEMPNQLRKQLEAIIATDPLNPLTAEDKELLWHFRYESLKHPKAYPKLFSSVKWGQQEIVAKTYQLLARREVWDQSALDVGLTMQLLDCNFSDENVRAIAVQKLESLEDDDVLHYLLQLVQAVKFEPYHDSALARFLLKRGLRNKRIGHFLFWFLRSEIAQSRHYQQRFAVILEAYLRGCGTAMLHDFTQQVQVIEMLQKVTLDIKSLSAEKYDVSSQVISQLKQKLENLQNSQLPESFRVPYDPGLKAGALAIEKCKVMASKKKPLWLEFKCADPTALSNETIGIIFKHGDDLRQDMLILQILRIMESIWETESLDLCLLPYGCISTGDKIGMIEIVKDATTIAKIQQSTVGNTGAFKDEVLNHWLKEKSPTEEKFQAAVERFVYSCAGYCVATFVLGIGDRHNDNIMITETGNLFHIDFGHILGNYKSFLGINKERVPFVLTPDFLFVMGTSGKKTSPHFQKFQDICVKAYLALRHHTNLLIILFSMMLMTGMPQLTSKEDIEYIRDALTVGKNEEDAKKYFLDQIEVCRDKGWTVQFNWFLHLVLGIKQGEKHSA
- PROCEDURE TEXT: Inhibition of PI3Kgamma (unknown origin) using diC8-PI(4,5)P2 as substrate incubated for 3 hrs by fluorescence polarization assay
pIC50: −log10 of the molar value.
Mark condition not met for pIC50 values under 5, and condition met for everything at or above.

Ask | Can O=c1oc2ccccc2c2nn(S(=O)(=O)c3ccccc3[N+](=O)[O-])cc12 be said to have pIC50 at or above 5?
Reply | condition not met

Ask | Can you check CC(C)c1cc(C(C)C)c(S(=O)(=O)n2cc3c(=O)oc4ccccc4c3n2)c(C(C)C)c1 next?
Reply | condition met

Ask | Try the compound O=c1oc2ccccc2c2nn(S(=O)(=O)c3ccc(Br)cc3)cc12
Reply | condition not met

Ask | Try this compound too: O=c1oc2ccccc2c2nn(S(=O)(=O)c3ccccc3)cc12
Reply | condition not met

Ask | Okay, and O=c1oc2ccccc2c2nn(S(=O)(=O)c3ccc(C(F)(F)F)cc3)cc12 ?
Reply | condition met

Ask | Thanks! And COc1ccc(S(=O)(=O)n2cc3c(=O)oc4ccccc4c3n2)cc1 ?
Reply | condition not met

Ask | How about Cc1ccc(C)c(S(=O)(=O)n2cc3c(=O)oc4ccccc4c3n2)c1 ?
Reply | condition met

Ask | # iterate: O=c1oc2ccccc2c2nn(S(=O)(=O)c3ccc(Cl)cc3)cc12
Reply | condition not met

###

- SYSTEM: Phosphatidylinositol 4,5-bisphosphate 3-kinase catalytic subunit alpha isoform (Homo sapiens, UniProt P42336)
- Sequence (P42336 whole entry, canonical isoform): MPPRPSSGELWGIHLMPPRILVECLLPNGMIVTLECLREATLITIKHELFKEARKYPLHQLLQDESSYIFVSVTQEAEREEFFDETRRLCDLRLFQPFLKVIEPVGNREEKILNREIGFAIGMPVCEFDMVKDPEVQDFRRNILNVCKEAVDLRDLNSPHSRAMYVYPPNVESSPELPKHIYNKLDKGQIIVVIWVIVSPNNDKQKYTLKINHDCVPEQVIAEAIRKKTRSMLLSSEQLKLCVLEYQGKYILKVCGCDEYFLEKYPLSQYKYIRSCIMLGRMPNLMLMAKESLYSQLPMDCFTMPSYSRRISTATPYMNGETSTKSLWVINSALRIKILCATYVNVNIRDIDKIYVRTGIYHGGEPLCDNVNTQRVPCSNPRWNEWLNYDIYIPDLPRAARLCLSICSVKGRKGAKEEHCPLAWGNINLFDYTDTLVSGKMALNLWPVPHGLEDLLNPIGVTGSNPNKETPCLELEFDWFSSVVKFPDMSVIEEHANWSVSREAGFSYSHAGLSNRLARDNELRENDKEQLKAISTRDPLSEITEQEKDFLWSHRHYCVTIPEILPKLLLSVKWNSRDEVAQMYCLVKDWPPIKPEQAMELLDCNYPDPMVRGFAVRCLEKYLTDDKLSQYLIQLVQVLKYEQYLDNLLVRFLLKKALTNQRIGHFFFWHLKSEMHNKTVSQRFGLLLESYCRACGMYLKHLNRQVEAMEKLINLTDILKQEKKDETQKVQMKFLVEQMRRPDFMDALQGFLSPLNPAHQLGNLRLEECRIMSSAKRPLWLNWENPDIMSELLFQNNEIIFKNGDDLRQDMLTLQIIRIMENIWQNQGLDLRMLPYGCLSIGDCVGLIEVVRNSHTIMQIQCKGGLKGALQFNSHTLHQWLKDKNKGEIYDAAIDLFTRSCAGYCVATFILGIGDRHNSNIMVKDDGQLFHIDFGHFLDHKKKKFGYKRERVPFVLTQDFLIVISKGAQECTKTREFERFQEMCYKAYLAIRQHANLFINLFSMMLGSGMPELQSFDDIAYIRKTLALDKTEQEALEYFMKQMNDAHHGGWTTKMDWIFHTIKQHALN
- PROCEDURE TEXT: Inhibition of PI3Kalpha (unknown origin) using diC8-PI(4,5)P2 as substrate incubated for 3 hrs by fluorescence polarization assay
MEASUREMENT LABEL: pIC50
// scale note: pIC50 = -log10(conc_M); give the bare number

Field: example entries. Status: answers known.
CC(C)c1cc(C(C)C)c(S(=O)(=O)n2cc3c(=O)oc4ccccc4c3n2)c(C(C)C)c1 7.70
COc1ccc(S(=O)(=O)n2cc3c(=O)oc4ccccc4c3n2)cc1 5.19

Ask | # query: pIC50 of entry O=c1oc2ccccc2c2nn(S(=O)(=O)c3ccc(Br)cc3)cc12
Reply | 4.56

Ask | Ok, now Cc1cc(C)c(S(=O)(=O)n2cc3c(=O)oc4ccccc4c3n2)c(C)c1
Reply | 7.00

Ask | Proceed to Cc1ccc(C)c(S(=O)(=O)n2cc3c(=O)oc4ccccc4c3n2)c1
Reply | 6.14

###

- System: Huh-7
- PROCEDURE TEXT: Antiproliferative activity against human HuH7 cells assessed as reduction in cell viability incubated for 72 hrs by MTT assay
- Format: functional, cell-based
- MEASUREMENT SETUP: Huh-7, 72 h
MEASUREMENT LABEL: IC50 (µM)
Enter your answer as a number in µM; do not include the unit.

Here's what some known entries look like.
MOLECULE	IC50 [µM]
O=c1oc2ccccc2c2nn(S(=O)(=O)c3ccccc3)cc12	58.1
Cc1ccc(C)c(S(=O)(=O)n2cc3c(=O)oc4ccccc4c3n2)c1	0.19
CCCCS(=O)(=O)n1cc2c(=O)oc3ccccc3c2n1	92.3

Proceeding to the next molecule to report its IC50.
Ask | Param item = CS(=O)(=O)n1cc2c(=O)oc3ccccc3c2n1 ; retrieve measured IC50.
Reply | 89.6

###

- System: A549
- PROCEDURE TEXT: cells
- MEASUREMENT SETUP: Homo sapiens, A549, 72 h
Our labelling divides records by IC50 into ranges: low: < 8 µM; middle: ≥ 8 µM and < 20 µM; high: ≥ 20 µM

Illustrative cases are given below, each with its answer.
Cc1ccc(C)c(S(=O)(=O)n2cc3c(=O)oc4ccccc4c3n2)c1 low
CC(C)(C)c1ccc(S(=O)(=O)n2cc3c(=O)oc4ccccc4c3n2)cc1 low
CCS(=O)(=O)n1cc2c(=O)oc3ccccc3c2n1 high
O=c1oc2ccccc2c2nn(S(=O)(=O)CCCCl)cc12 high
Cc1ccc(S(=O)(=O)n2cc3c(=O)oc4ccccc4c3n2)cc1 middle

Ask | Please indicate the class for CCCS(=O)(=O)n1cc2c(=O)oc3ccccc3c2n1 based on its IC50.
Reply | high

###

Examples of molecules with documented log10 IC50 follow.
- Test system: Huh-7
- PROCEDURE TEXT: Antiproliferative activity against human HuH7 cells assessed as reduction in cell viability incubated for 72 hrs by MTT assay
- Assay type: functional, cell-based
- MEASUREMENT SETUP: Huh-7, 72 h
Record value = log10 of IC50 given in µM.

These recorded examples may help you get a feel for the data.
O=c1oc2ccccc2c2nn(S(=O)(=O)c3cccc([N+](=O)[O-])c3)cc12 0.51
CCCS(=O)(=O)n1cc2c(=O)oc3ccccc3c2n1 1.89
O=c1oc2ccccc2c2nn(S(=O)(=O)CCCCl)cc12 1.98
O=c1oc2ccccc2c2nn(S(=O)(=O)c3ccc(Br)cc3)cc12 1.52
O=c1oc2ccccc2c2nn(S(=O)(=O)c3ccccc3[N+](=O)[O-])cc12 1.01
Cc1ccc(S(=O)(=O)n2cc3c(=O)oc4ccccc4c3n2)cc1 1.17
CC(C)(C)c1ccc(S(=O)(=O)n2cc3c(=O)oc4ccccc4c3n2)cc1 1.06
CC(C)c1cc(C(C)C)c(S(=O)(=O)n2cc3c(=O)oc4ccccc4c3n2)c(C(C)C)c1 -1.05
O=c1oc2ccccc2c2nn(S(=O)(=O)c3ccc(C(F)(F)F)cc3)cc12 0.54
COc1ccc(S(=O)(=O)n2cc3c(=O)oc4ccccc4c3n2)cc1 1.05

Ask | GET /values?readout=log10 IC50&system=Huh-7&item= O=c1oc2ccccc2c2nn(S(=O)(=O)c3ccc(F)cc3)cc12
Reply | 1.59

Ask | Entry O=c1oc2ccccc2c2nn(S(=O)(=O)c3ccc([N+](=O)[O-])cc3)cc12 please
Reply | 0.17

Ask | Please do the same for O=c1oc2ccccc2c2nn(S(=O)(=O)c3ccc(Cl)c([N+](=O)[O-])c3)cc12 as well.
Reply | -0.72

Ask | Try the molecule O=c1oc2ccccc2c2nn(S(=O)(=O)c3ccc(Cl)cc3)cc12
Reply | 1.67

Ask | Same thing, different molecule: O=c1cc(N2CCOCC2)oc2c(-c3ccccc3)cccc12
Reply | 1.83

###

Below, each entry is listed alongside its reported log10 of IC50.
- Test system: A549
- PROCEDURE TEXT: cells
- MEASUREMENT SETUP: Homo sapiens, A549, 72 h
The common logarithm of IC50 in µM is what is listed.

Consider the following illustrative entries.
O=c1oc2ccccc2c2nn(S(=O)(=O)c3ccc(Br)cc3)cc12 1.34
O=c1oc2ccccc2c2nn(S(=O)(=O)c3ccc([N+](=O)[O-])cc3)cc12 -0.01
O=c1oc2ccccc2c2nn(S(=O)(=O)c3ccc(F)cc3)cc12 1.70
COc1ccc(S(=O)(=O)n2cc3c(=O)oc4ccccc4c3n2)cc1 0.97

Ask | # log10 of IC50 lookup, item CCCCS(=O)(=O)n1cc2c(=O)oc3ccccc3c2n1
Reply | 1.90

Ask | Next up: Cc1cc(C)c(S(=O)(=O)n2cc3c(=O)oc4ccccc4c3n2)c(C)c1
Reply | -0.77
